Test system: NEK9;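 also: KINOMEscan kinase panel screen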
MEASUREMENT_CONTEXT: concentration: 1 μM,replicates: in singlicate; n = 1
Use Satisfied when the recorded %Inh is no lower than 8%; use Not satisfied when it is lower.

Q: Say whether CC(C)c1nc(-c2cccc(NS(=O)(=O)c3ccccc3)c2)c(-c2ccnc(Nc3ccc4c(c3)CN(C)CC4)n2)s1 shows %Inh of 8% or more.
Ans: Satisfied

Q: Say whether COc1cc2nccc(Nc3ccc(Oc4ccccc4)cc3)c2cc1OC.Cl shows %Inh of 8% or more.
Ans: Not satisfied

Q: Say whether Cn1ccc2ncnc(Oc3ccc(NC(=O)Nc4ccnc(C(F)(F)F)c4)c(Cl)c3)c21 shows %Inh of 8% or more.
Ans: Not satisfied

Q: Say whether CCOC(=O)N1CCC(n2cnc(-c3ccc(F)cc3)c2-c2ccnc(N)n2)CC1 shows %Inh of 8% or more.
Ans: Satisfied

Q: Say whether Cl.c1ccc(Oc2ccc(Nc3ccnc4cc(-c5ccc(CN6CCNCC6)o5)ccc34)cc2)nc1 shows %Inh of 8% or more.
Ans: Satisfied

Q: Say whether CCCC(=O)Nc1n[nH]c2ncccc12 shows %Inh of 8% or more.
Ans: Not satisfied

Q: Say whether Cc1ccc2c(-c3ccnc(Nc4ccc(C(F)(F)F)cc4)n3)cnn2n1 shows %Inh of 8% or more.
Ans: Not satisfied

Q: Say whether COc1cc(Nc2nccc(N3CCC(NC(=O)c4cccc(C#N)c4)C3)n2)cc(OC)c1OC (stereo not shown) shows %Inh of 8% or more.
Ans: Not satisfied

Q: Say whether C[C@@H]1CCN(C(=O)N2CCCC2)C[C@@H]1N(C)c1ncnc2[nH]ccc12 shows %Inh of 8% or more.
Ans: Not satisfied
